Cited source for all entries: ChEMBL document CHEMBL1137733

# Assayed System: albumin (Homo sapiens)
# Sequence (P02768 whole entry): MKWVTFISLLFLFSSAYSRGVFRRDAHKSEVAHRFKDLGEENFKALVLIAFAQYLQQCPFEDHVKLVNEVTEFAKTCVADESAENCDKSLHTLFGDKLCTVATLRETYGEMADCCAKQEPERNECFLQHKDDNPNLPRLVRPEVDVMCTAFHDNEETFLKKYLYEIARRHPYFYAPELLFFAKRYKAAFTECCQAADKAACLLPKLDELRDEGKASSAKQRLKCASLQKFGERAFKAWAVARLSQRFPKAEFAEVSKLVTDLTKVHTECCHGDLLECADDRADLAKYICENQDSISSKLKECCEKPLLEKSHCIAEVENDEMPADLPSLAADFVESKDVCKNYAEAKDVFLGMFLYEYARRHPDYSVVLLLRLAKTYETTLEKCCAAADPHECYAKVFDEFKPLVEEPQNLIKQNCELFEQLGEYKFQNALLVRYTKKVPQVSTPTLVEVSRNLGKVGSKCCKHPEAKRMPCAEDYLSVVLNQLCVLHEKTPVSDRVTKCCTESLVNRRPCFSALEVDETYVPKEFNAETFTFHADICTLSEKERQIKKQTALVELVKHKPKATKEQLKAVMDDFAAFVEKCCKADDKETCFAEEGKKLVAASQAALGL
# Protocol Text: Binding affinity to human plasma albumin by ultracentrifugation
# Type: cell-free
# Assay Conditions: read-out: PB (converted)
Observation Type: fraction unbound

**Query** What fraction unbound value was documented for this compound, Cn1c(=O)c2c(ncn2C)n(C)c1=O ?
**Result** 0.622
